subject.of.test: MsmegMurG (Mycolicibacterium smegmatis, UniProt A0R016)
Sequence (A0R016 whole entry): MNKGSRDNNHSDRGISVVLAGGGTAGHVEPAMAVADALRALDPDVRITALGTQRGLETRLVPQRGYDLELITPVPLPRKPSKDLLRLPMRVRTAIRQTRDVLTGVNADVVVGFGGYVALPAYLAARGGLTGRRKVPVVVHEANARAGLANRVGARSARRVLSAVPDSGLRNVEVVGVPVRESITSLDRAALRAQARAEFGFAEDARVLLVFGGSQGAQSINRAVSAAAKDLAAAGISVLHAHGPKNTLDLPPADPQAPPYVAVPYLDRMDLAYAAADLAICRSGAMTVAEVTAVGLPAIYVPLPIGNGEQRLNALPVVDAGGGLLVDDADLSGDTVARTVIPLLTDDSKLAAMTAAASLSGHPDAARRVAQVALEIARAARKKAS
measurement.notes: biochemical
Design: species or system Mycobacterium smegmatis
reported.metric: IC50
Field: value (include unit after the number)

Request: Data request, read-out IC50, for C[C@@H]([C@H](N)C(=O)N[C@H](C(=O)O)[C@H]1O[C@@H](n2ccc(=O)[nH]c2=O)[C@H](O)[C@@H]1O)[C@H](O)c1ccc(O)cn1 [Nikkomycin Z, nikkomycin Z]
Result: 9.5 µM

----------
As shown below, each of these compounds has a reported inhibition at 50 µM value.
subject.of.test: HyMurG (Hydrogenivirga sp. 128-5-R1-1)
Sequence (A8US35 1-350): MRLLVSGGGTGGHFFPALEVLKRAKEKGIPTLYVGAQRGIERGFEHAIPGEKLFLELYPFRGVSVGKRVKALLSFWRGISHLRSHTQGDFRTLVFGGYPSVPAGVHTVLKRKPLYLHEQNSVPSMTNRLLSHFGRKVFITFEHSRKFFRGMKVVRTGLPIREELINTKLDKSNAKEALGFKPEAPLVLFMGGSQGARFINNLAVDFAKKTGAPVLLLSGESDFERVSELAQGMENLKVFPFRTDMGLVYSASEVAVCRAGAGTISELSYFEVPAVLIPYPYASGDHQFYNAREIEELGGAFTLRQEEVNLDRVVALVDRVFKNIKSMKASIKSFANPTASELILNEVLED
measurement.notes: UV-Vis-based MurG assay
Format: biochemical
conditions: read-out: HthermMurG inhibition (%)
Record the value in %, omitting the unit from your answer.

Sample answers from the record:
Request: Item: CO[C@H]1[C@@H](O)[C@H](n2ccc(=O)[nH]c2=O)O[C@@H]1[C@@H](O[C@H]1OC(C(=O)N[C@H]2CCCCNC2=O)=C[C@H](O)[C@@H]1O)C(N)=O Test system: HyMurG (Hydrogenivirga sp. 128-5-R1-1) Read-out: inhibition at 50 µM Value: ?
Result: 0

Request: Item: C=C(C/C=C(\C)CCC=C(C)C)CCC(C)(C)/C=C/CC/C(C)=C\CO[C@H](COP(=O)(O)O[C@H]1O[C@H](C(N)=O)[C@@](C)(O)[C@H](OC(N)=O)[C@H]1O[C@@H]1O[C@H](CO[C@@H]2O[C@H](CO)[C@@H](O)[C@H](O)[C@H]2O)[C@@H](O[C@@H]2O[C@H](C)[C@@H](O[C@@H]3O[C@H](C(=O)NC4=C(O)CCC4=O)[C@H](O)[C@H](O)[C@H]3O)[C@H](O)[C@H]2NC(C)=O)[C@H](O)[C@H]1NC(C)=O)C(=O)O Test system: HyMurG (Hydrogenivirga sp. 128-5-R1-1) Read-out: inhibition at 50 µM Value: ?
Result: 0

Others:
Request: Item: C[C@@H]([C@H](N)C(=O)N[C@H](C(=O)O)[C@H]1O[C@@H](n2ccc(=O)[nH]c2=O)[C@H](O)[C@@H]1O)[C@H](O)c1ccc(O)cn1 Test system: HyMurG (Hydrogenivirga sp. 128-5-R1-1) Read-out: inhibition at 50 µM Value: ?
Result: 50

Request: Item: O=C(NC(=O)c1ccccc1Cl)Nc1ccc(OC(F)(F)F)cc1 Test system: HyMurG (Hydrogenivirga sp. 128-5-R1-1) Read-out: inhibition at 50 µM Value: ?
Result: 0

----------
subject.of.test: MurG, P-60 (M. smegmatis) (Mycolicibacterium smegmatis, UniProt A0R016)
reported.metric: IC50 (µM)
Record the value in µM, omitting the unit from your answer.

Request: Item: CC(=O)N[C@H]1[C@@H](OP(=O)(O)OP(=O)(O)OC[C@H]2O[C@@H](n3ccc(=O)[nH]c3=O)[C@H](O)[C@@H]2O)O[C@H](CO)[C@@H](O)[C@@H]1O [UDP-GlcNAc] Test system: MurG, P-60 (M. smegmatis) (Mycolicibacterium smegmatis, UniProt A0R016) Read-out: IC50 Value: ?
Result: 8.4

Hey, just so you know, these numbers are from paper PMC7286788.
